- method-description: Plasma PK and tissue distribution after oral dosing of INTERMEDIATE C4 (3 mg/kg)
- Assay type: in vivo
- condition: plasma, PO 3 mg/kg INTERMEDIATE C4, male Wistar Han rat, mean
measurement-type: Tmax (h)
Note: unit h is implicit; provide only the numeric part.

// lookup Tmax for CC(C)CN(c1ccc([C@H](C)CC(=O)O)cc1Nc1cnc(Cl)cn1)C1CCOCC1 [intermediate C4]
1

###

- method-description: Plasma PK and tissue distribution after oral dosing of prodrug EXAMPLE 7 (5 mg/kg)
- Type: in vivo
- condition: male, Wistar Han, rat, spleen/plasma, po, 5 mg/kg, PO 5 mg/kg EXAMPLE 7 (prodrug), analyte as labelled, read-out: AUCspleen/AUCplasma
measurement-type: Kp
Write the value as a bare number.

// lookup Kp for CC(C)CN(c1ccc([C@H](C)CC(=O)O)cc1Nc1cnc(Cl)cn1)C1CCOCC1 [intermediate C4]
0.558
